Target: Cytochrome P450 3A4 (Homo sapiens)
Assay: Cytochrome panel assay with activity outcomes
Conditions: recombinant CYP, pro-luciferin dealkylation, luminescence, p450-cyp3a4; series mostly up to 57.1 µM
About 5,100 (32%) of roughly 16,000 compounds were called active. About 25% were inconclusive and are not listed. Calls follow the shape of the dose curve; as a rule, active = well fitted curve in the direction sought with a large enough effect; inconclusive = small, poorly fitted or top-dose-only effect, or effect the other way; inactive = no such curve, though single readings can be large or run the other way. This is one part of the list.
Parameter call: string, one of YES (active), NO (inactive)

Observe how each entry below is paired with its result.
COc1cc(NC(=O)c2c(F)cccc2F)nc(OC)n1: NO
CS(=O)(=O)c1ccc(Cn2c3c(c4cc(F)cc(F)c42)CCC[C@H]3CC(=O)O)cc1: YES
CC(=O)NCCNc1nc(-c2c(C)noc2C)nc2ccccc12: YES
C[C@H]1CN(S(=O)(=O)c2cccc3cnccc23)CCN1: YES
CC#CCCCC(=O)Nc1cc(OC)nc(OC)n1: YES

Below: the item to evaluate.
[Q] Dear all, I need the recorded test outcome for COc1ccccc1-c1nc(NCCNC(C)=O)c2ccccc2n1 , thank you.
[A] NO
